Experiment: Inhibition of proteinase K incubated for 30 mins prior to substrate addition by spectrophotometry
pIC50: −log10 of the molar value.

Chemical String | pIC50
CSCC[C@@H](NC(=O)[C@@H](CC(C)C)NC(=O)C(F)(F)F)C(=O)N1CCC[C@@H]1C(=O)N[C@H](Cc1cnc[nH]1)C(N)=O | < 3.00

----------
Assay: Inhibition of carboxypeptidase Y incubated for 30 mins prior to substrate addition by spectrophotometry

Chemical String | IC50 [µM]
CSCC[C@@H](NC(=O)[C@@H](CC(C)C)NC(=O)C(F)(F)F)C(=O)N1CCC[C@@H]1C(=O)N[C@H](Cc1cnc[nH]1)C(N)=O | 210
